assay_remarks: Cytotoxicity against human H8 cells after 48 hrs by MTT assay
Format: cell-based
IC50 values for the compounds below.
value_kind: IC50 (µM)

1) COc1cc([C@@H]2c3cc4c(cc3[C@@H](c3nc5c(F)c(F)c(F)c(F)c5s3)[C@H]3COC(=O)[C@H]23)OCO4)cc(OC)c1O    24.7
2) COc1cc([C@@H]2c3cc4c(cc3[C@@H](c3nc5cnc(F)cc5[nH]3)[C@H]3COC(=O)[C@H]23)OCO4)cc(OC)c1O    34
3) COc1cc([C@@H]2c3cc4c(cc3[C@@H](c3nc5c(F)c(F)c(F)c(F)c5o3)[C@H]3COC(=O)[C@H]23)OCO4)cc(OC)c1O    44.6
4) COc1cc([C@@H]2c3cc4c(cc3[C@@H](c3nc5cc(OC(F)F)ccc5[nH]3)[C@H]3COC(=O)[C@H]23)OCO4)cc(OC)c1O    55.4
5) COc1cc([C@@H]2c3cc4c(cc3[C@@H](O[C@@H]3O[C@@H]5CO[C@@H](C)O[C@H]5[C@H](O)[C@H]3O)[C@H]3COC(=O)[C@H]23)OCO4)cc(OC)c1O [ETOPOSIDE]    75.4

====

pIC50 values for the compounds below.
assay_remarks: Cytotoxicity against human H8 cells after 48 hrs by MTT assay
Assay type: cell-based
pIC50: −log10 of the molar value.
value_kind: pIC50

1) COc1cc([C@@H]2c3cc4c(cc3[C@@H](C3CC(S)NN3c3ccccc3F)[C@H]3COC(=O)[C@H]23)OCO4)cc(OC)c1O (some centres undefined)    4.19
2) COc1cc([C@@H]2c3cc4c(cc3[C@@H](c3nc5ccccc5o3)[C@H]3COC(=O)[C@H]23)OCO4)cc(OC)c1O    4.69
3) COc1cc([C@@H]2c3cc4c(cc3[C@@H](c3nc5cc(C)ccc5o3)[C@H]3COC(=O)[C@H]23)OCO4)cc(OC)c1O    4.71
